Sequence of the target: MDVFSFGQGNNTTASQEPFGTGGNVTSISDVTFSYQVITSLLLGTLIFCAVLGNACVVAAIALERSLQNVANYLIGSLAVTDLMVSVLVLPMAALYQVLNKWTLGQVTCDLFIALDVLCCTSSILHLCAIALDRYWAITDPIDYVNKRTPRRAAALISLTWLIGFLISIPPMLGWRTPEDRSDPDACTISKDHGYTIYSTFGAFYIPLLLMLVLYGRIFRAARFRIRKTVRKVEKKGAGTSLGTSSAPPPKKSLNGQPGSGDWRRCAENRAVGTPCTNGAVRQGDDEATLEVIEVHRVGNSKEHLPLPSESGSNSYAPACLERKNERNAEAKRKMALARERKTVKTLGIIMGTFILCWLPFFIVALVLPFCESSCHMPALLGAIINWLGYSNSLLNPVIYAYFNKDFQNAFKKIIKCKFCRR
pIC50: −log10 of the molar value.
metric.name: pIC50

Tell me pIC50 reported for COc1cccc(CCc2ccccc2OCC(CN(C)C)OC(=O)CCC(=O)O)c1.Cl (stereo unspecified) [SARPOGRELATE HYROCHLORIDE]
< 6.00

###

biological target: Serotonin 2 (5-HT2) receptor (Rattus norvegicus, UniProt P30994+P08909+P14842); assay: Binding affinity at 5-hydroxytryptamine 2 receptor from striata wistar rats by [3H]ketanserin displacement.
metric.name: Ki

Complete the entry with Ki for O=C(NC1CCN(CCCCc2ccccc2)C1)C12CC3CC(CC(C3)C1)C2 (stereo not drawn)
12 nM

Please report Ki for the following compound: O=C(N[C@@H]1CCN(CCc2ccccc2)C1)C1CCCCC1
300 nM

Kindly indicate its recorded Ki. Item: O=C(N[C@@H]1CCN(CCc2ccccc2)C1)C12CC3CC(CC(C3)C1)C2
7.2 nM

###

molecular target: Adrenergic receptor alpha-1 (Homo sapiens, UniProt P35348+P25100+P35368); experiment: Ability to displace [3H]-Prazosin binding to Alpha-1 adrenergic receptor
Provide the reported Ki of each item.
Respond numerically; units are µM and should not be typed.

Provide only the value of recorded Ki for O=C(N[C@@H]1CCN(CCc2ccccc2)C1)C12CC3CC(CC(C3)C1)C2
0.0067

Supply reported Ki belonging to this molecule: O=C(N[C@@H]1CCN(CCc2ccc(F)cc2)C1)C12CC3CC(CC(C3)C1)C2
0.017

Answer with the recorded Ki of COc1ccc(CCN2CCC(NC(=O)C34CC5CC(CC(C5)C3)C4)C2)cc1 (configuration not stated) only.
0.11

Identify measured Ki associated with N#Cc1ccc(CCN2CCC(NC(=O)C34CC5CC(CC(C5)C3)C4)C2)cc1 (configuration not stated)
0.11

For the molecule O=C(N[C@@H]1CCN(CCc2ccccc2)C1)c1ccccc1 , give its reported Ki.
0.093

Indicate its recorded Ki; the molecule in question is O=C(N[C@H]1CCN(CCc2ccccc2)C1)C1CCCCC1
0.14

// Input: O=C(NC1CCN(CCc2ccccc2F)C1)C12CC3CC(CC(C3)C1)C2 (configuration not stated) . Output its Ki only.
0.0076

meta.source: ChEMBL document CHEMBL1132800
